Test system: C57BL/6J mice
Assay: In vivo expression by IV, 1.0 mg/kg luciferase RNA-LNPs, whole-body and organ IVIS luminescence
Details: IV 1.0 mg/kg, 24 h post injection, male C57BL/6J mice N=3, Formulation 001, RNA 331
Please provide measured Kidney (p/s) for the entries that follow.
Reply numerically in p/s, unit not repeated.

compound CCCCCCCCCCC(CCCCCCCC)COC(=O)CCCCCOC(=O)NC(COC(=O)NCCN1CCCCC1)C(=O)OCCCCCC(=O)OCC(CCCCCCCC)CCCCCCCCCC (stereo not drawn) [Lipid 1020] , Kidney (p/s) observed: 5.29E+07

compound CCCCCCCC/C=C\CCCCCCCCOC(=O)NC(COC(=O)NCCN1CCCCCC1)C(=O)OCCCCCC(=O)OCC(CCCCCCCC)CCCCCCCCCC (stereo not drawn) [Lipid 1041] , Kidney (p/s) observed: 6.14E+06

compound CCCCCCCCCCC(CCCCCCCC)COC(=O)CCCCCOC(=O)NC(COC(=O)NCCN(C)C)C(=O)OCCCCCC(=O)OCC(CCCCCCCC)CCCCCCCCCC (stereo not drawn) [Lipid 1017] , Kidney (p/s) observed: 9.00E+06

compound CCCCCCCCCCC(CCCCCCCC)COC(=O)CCCCCOC(=O)NC(COC(=O)NCCN1CCCCCC1)C(=O)OCCCCCCCC(=O)OC(CCCCCCCC)CCCCCCCC (stereo not drawn) [Lipid 1072] , Kidney (p/s) observed: 8.41E+06

compound CCCCCCCCCCC(CCCCCCCC)COC(=O)CCCCCOC(=O)NC(COC(=O)NCCN1CCCC1)C(=O)OCCCCCC(=O)OCC(CCCCCCCC)CCCCCCCCCC (stereo not drawn) [Lipid 1019] , Kidney (p/s) observed: 1.46E+07

compound CCCCCCCCCCC(CCCCCCCC)COC(=O)CCCCCOC(=O)NC(COC(=O)NCCN1CCCCCC1)C(=O)OCCCCCC(=O)OCC(CCCCCCCC)CCCCCCCCCC (stereo not drawn) [Lipid 1021] , Kidney (p/s) observed: 5.69E+07

====

System: hEPO
Assay: In vivo expression by IM: serum hEPO concentration by ELISA
Settings: IM 0.075 mg/kg, 48 h, male C57BL/6J mice N=3, Formulation 001, RNA 019
Please provide measured hEPO conc. (ng/mL) at 48 h for the entries that follow.
Reply numerically in ng/mL, unit not repeated.

molecule CCCCC/C=C\C/C=C\CCCCCCCC(=O)N[C@@H](COC(=O)NCCN1CCCCC1)C(=O)OCCCCCCCC(=O)OC(CCCCCCCC)CCCCCCCC [Lipid 601] , hEPO conc. (ng/mL) at 48 h observed: 3.29

molecule CCCCC/C=C\C/C=C\CCCCCCCC(=O)NC(COC(=O)NCCN1CCCCC1)C(=O)OCCCCCCCC(=O)OC(CCCCCCCC)CCCCCCCC (stereo not shown) [Lipid 549] , hEPO conc. (ng/mL) at 48 h observed: 2.61

molecule CCCCC/C=C\C/C=C\CCCCCCCC(=O)N[C@@H](COC(=O)NCCN1CCCCCC1)C(=O)OCCCCCCCC(=O)OC(CCCCCCCC)CCCCCCCC [Lipid 602] , hEPO conc. (ng/mL) at 48 h observed: 2.44

molecule CCCCC/C=C\C/C=C\CCCCCCCC(=O)NC(COC(=O)NCCN1CCCCCC1)C(=O)OCCCCCCCC(=O)OC(CCCCCCCC)CCCCCCCC (stereo not shown) [Lipid 550] , hEPO conc. (ng/mL) at 48 h observed: 2.38
